What follows is a record of pIC50 for DDR1 (Homo sapiens, UniProt Q08345).
pIC50: −log10 of the molar value.
endpointName: pIC50

1) Cl.NCC1(c2nc(-c3ccc(Cl)c(O)c3)c(-c3ccncc3)[nH]2)CCCCC1 [TCMDC-141154] ... 5.74
2) CN(C)CC(O)COc1ccc(Nc2ncc([N+](=O)[O-])c(Nc3ccccc3O)n2)cc1.O=C(O)C(F)(F)F (centres unmarked) [TCMDC-141399] ... 4.96

---

# targetOrSystem: NEK9 (Homo sapiens)
# Sequence (Q8TD19 1-979): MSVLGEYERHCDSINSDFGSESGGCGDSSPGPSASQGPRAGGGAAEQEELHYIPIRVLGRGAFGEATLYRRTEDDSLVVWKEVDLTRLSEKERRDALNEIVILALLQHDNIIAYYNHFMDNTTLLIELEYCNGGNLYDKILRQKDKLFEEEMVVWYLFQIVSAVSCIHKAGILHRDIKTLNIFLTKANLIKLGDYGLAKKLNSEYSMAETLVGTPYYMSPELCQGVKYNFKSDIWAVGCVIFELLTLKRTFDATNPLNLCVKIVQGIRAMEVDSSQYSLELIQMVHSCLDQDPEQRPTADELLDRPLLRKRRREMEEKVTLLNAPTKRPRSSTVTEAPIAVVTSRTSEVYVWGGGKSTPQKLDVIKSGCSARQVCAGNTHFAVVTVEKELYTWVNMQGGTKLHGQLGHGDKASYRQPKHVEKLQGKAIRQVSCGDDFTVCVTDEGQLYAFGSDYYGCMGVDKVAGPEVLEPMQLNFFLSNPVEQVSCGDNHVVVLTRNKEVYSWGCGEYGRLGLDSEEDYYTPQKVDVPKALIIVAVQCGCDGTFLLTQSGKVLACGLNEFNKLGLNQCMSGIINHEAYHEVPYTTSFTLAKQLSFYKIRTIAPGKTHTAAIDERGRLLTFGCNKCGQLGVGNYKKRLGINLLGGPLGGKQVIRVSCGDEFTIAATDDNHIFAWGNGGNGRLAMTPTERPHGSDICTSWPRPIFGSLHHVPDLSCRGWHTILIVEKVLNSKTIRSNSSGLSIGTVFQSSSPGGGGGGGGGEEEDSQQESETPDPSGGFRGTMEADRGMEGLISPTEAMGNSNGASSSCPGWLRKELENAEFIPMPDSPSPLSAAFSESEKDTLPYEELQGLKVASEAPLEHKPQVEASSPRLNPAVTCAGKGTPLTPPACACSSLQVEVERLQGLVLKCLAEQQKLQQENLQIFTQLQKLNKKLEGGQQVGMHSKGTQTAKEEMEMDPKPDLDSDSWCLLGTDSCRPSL
pIC50: −log10 of the molar value.
Consider the following compounds and their measured pIC50 readings.
endpointName: pIC50

1. Cl.NCC1(c2nc(-c3ccc(Cl)c(O)c3)c(-c3ccncc3)[nH]2)CCCCC1 ... < 4.70
2. CN(C)CC(O)COc1ccc(Nc2ncc([N+](=O)[O-])c(Nc3ccccc3O)n2)cc1.O=C(O)C(F)(F)F (centres unmarked) ... < 4.70
